Target: Cytochrome P450 2C19 (Homo sapiens) (UniProt P33261)
Sequence (P33261 whole entry, looked up): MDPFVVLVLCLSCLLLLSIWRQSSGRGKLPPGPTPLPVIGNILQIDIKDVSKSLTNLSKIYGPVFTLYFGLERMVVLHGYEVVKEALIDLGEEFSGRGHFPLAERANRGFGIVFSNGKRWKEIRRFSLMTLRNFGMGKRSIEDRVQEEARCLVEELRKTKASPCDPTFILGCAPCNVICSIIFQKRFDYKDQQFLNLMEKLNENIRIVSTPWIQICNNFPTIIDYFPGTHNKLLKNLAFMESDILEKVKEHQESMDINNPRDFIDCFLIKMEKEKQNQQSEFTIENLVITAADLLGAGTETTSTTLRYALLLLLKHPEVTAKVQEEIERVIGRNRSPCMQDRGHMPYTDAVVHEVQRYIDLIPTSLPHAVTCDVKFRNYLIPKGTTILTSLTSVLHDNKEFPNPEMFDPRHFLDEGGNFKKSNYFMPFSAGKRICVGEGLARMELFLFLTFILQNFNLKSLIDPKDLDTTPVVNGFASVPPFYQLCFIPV
Assay: Cytochrome panel assay with activity outcomes
Conditions: recombinant CYP, pro-luciferin dealkylation, luminescence, p450-cyp2c19; series mostly up to 57.1 µM
About 5,800 (36%) of roughly 16,000 compounds were called active. Roughly 23% stayed inconclusive and do not appear here. The list shows a part of the results.
Measured metric: AC50

// worked examples, AC50 included
Compound	AC50
COC(=O)c1cc(C(=O)c2cccc(Cl)c2Cl)cn1C	1.26 µM (active)
Cn1cc(C(=O)c2ccc(Cl)cc2Cl)cc1C(=O)O	inactive
CCCCN1C(=O)NC(NC(=O)c2ccco2)(C(F)(F)F)C1=O (stereo not given)	8.91 µM (active)
Cc1ccccc1[C@@H](OCCN(C)C)c1ccccc1	inactive

Ask: Returns the measured AC50 for the input compound. Input: CC(C)NC[C@@H](O)COc1ccc(COCCOC(C)C)cc1
Reply: inactive

Ask: What value of AC50 has been recorded for this entry: Cc1c(-n2cc(C(=O)c3cc(Cl)ccc3O)cc(C#N)c2=O)c(=O)n(-c2ccccc2)n1C
Reply: inactive

Ask: Item under review: Cc1ccc(OCC(O)CNC(=O)c2ccccc2C(=O)O)cc1 (stereo not given) . Reported AC50?
Reply: 20 µM (active)
